Structures can show the parent of a compound that is named as a salt.
Quantity kind: melting point (°C)

1) CC1=CC2=NCC(C(=O)c3ccccc3)CN2C(C)=C1 (centres unmarked) (as salt: perchlorate)    78
2) CC1=CC2=NCC(C(=O)c3ccc(-c4ccccc4)cc3)CN2C=C1 (centres unmarked) (as salt: perchlorate)    111

----------
These records show IC50 for NO synthase (Rattus norvegicus).
Quantity kind: IC50 (µM)

1. CC1=CC2=NCC(C(=O)c3ccccc3)CN2C=C1 (centres unmarked) [Example 5]    9.1
2. CC1=CC2=NCC(C(=O)c3ccc(Cl)cc3)CN2C=C1 (centres unmarked) [Example 7]    6.4
3. CC1=CC=CC2=NCC(C(=O)c3ccc(-c4ccccc4)cc3)CN12 (centres unmarked) [Example 9]    7.6

I. CC1=CC2=NCC(C(=O)c3ccc(-c4ccccc4)cc3)CN2C=C1 (centres unmarked) [Example 8]
II. CC1=CC2=NCC(C(=O)c3ccc(F)cc3)CN2C=C1 (centres unmarked) [Example 4]
**Q:** Returns: the argument ( I or II ) having the larger IC50. Your answer should be the label of the entry you select.
**A:** I

----------
Counter-ions that a name gives are not always drawn.
Catalogue of melting point values

1. CC1=CC2=NCC(C(=O)c3ccc(Br)cc3)CN2C=C1 (stereo not drawn) (as salt: perchlorate) [Example 3]    158 to 161 °C

**Q:** Quick one: give measured melting point for CC1=CC2=NCC(C(=O)c3ccccc3)CN2C=C1 (stereo not drawn) (as salt: perchlorate) [Example 5]
**A:** > 290 °C

**Q:** Kindly indicate its recorded melting point. Item: CC1=CC2=NCC(C(=O)c3ccc(Cl)cc3)CN2C=C1 (stereo not drawn) (as salt: perchlorate) [Example 7]
**A:** 123 to 125 °C

Values from patent US7320980B2
